METHOD SUMMARY: Phase 1 food-effect crossover study: plasma PK after single 300 mg oral dose
Format: in vivo, human
SETTINGS: human, plasma, po, 300 mg, Treatment B: high-fat nondairy meal 4 h before dosing, read-out: Cmax, Mean (Coefficient of Variation)
MEASUREMENT LABEL: Cmax

Please look up its Cmax: CN(C)c1cc(CNCC(C)(C)C)c(O)c2c1C[C@H]1C[C@H]3[C@H](N(C)C)C(O)=C(C(N)=O)C(=O)[C@@]3(O)C(O)=C1C2=O
600 ng/mL

====

METHOD SUMMARY: Phase 1 multiple oral dose (300, 450, 600 mg once daily x 5 days) crossover study: plasma pharmacokinetics
SETTINGS: human, in vivo, po, 600 mg, Mean T1/2, 600 mg oral once daily; Day 1
MEASUREMENT LABEL: half-life (h)
The answer is to be given in h; state only the numeric part.

Please look up its half-life: CN(C)c1cc(CNCC(C)(C)C)c(O)c2c1C[C@H]1C[C@H]3[C@H](N(C)C)C(O)=C(C(N)=O)C(=O)[C@@]3(O)C(O)=C1C2=O [Omadacycline]
13
